Experiment: Solubility of Compound 1 in water, shake-flask method
Format: physicochemical
Conditions: thermodynamic from solid, visually determined at 20° C., water added stepwise to 10 mg
Description: Water was added stepwise to 10 mg of Compound 1, with 15 minutes in between additions, until complete dissolution was obtained.

| Molecule | solubility at 15 min |
| --- | --- |
| CN1[C@H]2CC[C@@H]1c1c(sc(NC(=O)Nc3ccc(Cl)cc3)c1C(N)=O)C2.CS(=O)(=O)O [Compound 1] | > 97 mg/mL |

----------
assay: Solubility in water of scaled-up salts of Compound B (salt screen); type: physicochemical

| Compound | solubility |
| --- | --- |
| CN1[C@H]2CC[C@@H]1c1c(sc(NC(=O)Nc3ccc(Cl)cc3)c1C(N)=O)C2.CS(=O)(=O)O [Compound 1] | 97 to 970 mg/mL |
